B1: Osa-1-4 twister ribozyme (parent)
chain: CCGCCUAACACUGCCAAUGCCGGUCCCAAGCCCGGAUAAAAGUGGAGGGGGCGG

Variants of: B1
EXPERIMENT_SUMMARY: self-cleavage, relative activity (ratio to wild type); higher = more cleavage; co-transcriptional
Quick rule: self-cleavage of at least 0.08 means Condition met, below that means Condition not met.

Recorded results for 4 variants are shown here.
CCGCCUAACACUGCCAAUGCCGGUCCUAGGCCCGGAUAAAAGUGGAGGGGGCGG [A29G C27U] | Condition not met
CCGCCUAACACGGCCAAUGCCGGUCCCAAGCCCGGAUAACAGUGGAGGGGGCGG [A40C U12G] | Condition met
CCGCCUAACACUGCCAAGGCGGGUCCCAAGCCCGGAUAAAAGUGGAGGGGGCGG [C21G U18G] | Condition met
CCGCCUAACACUGCCAAUGCCGGUCCCAAGCCCGGACAAAAGUGGUGGGGGCGG [A46U U37C] | Condition met

Could you tell me if the measured self-cleavage of CCGCCUAACACUGCCAAUGCCGGUCCCAAGCCCCGAUAAAAGUGGAGGGAGCGG [G34C G50A] reaches 0.08 or more?
Condition met

Also need CCGCCUAACACUGCCCAUGCCGGUCCCAAGCCCUGAUAAAAGUGGAGGGGGCGG [A16C G34U] , thanks.
Condition met

Also need CCGCCUAACACUGCCAUUGCCGGUCCCAAGCCCGGAUAAAAGUGGAGGGCGCGG [A17U G50C] , thanks.
Condition met

The reported measurements were obtained from the RNAGym collection of RNA variant scans (doi:10.1002/anie.201605470).
